- Test system: OVCAR-5
- protocol_summary: NCI antitumor screen (SRB)
- Format: cell-based
- test_settings: Homo sapiens, one dose 10 µM, read-out: Growth inhibition percentage (GI%)
parameter_measured: inhibition at 10 µM (%)

molecule | result_qualifier | observed_result
O=c1[nH]cc(F)c(=O)[nH]1 [Compound 5-Fu, 5-fluorouracil, reference compound] | = | 55.7
CS(=O)(=O)c1ccc(C(=O)NN=Cc2cccc3ccccc23)cc1 | < | 10
CS(=O)(=O)c1ccc(C(=O)N/N=C/c2ccccc2O)cc1 | = | 35.3
Cc1ccc(NC(=O)c2ccc(CN3CCN(C)CC3)cc2)cc1Nc1nccc(-c2cccnc2)n1 [Imatinib, imatinib, reference compound] | < | 10
CCN(CC)c1ccc(/C=N/NC(=O)c2ccc(S(C)(=O)=O)cc2)c(O)c1 | = | 67.5
Cc1ccc(C=NNC(=O)c2ccc(S(C)(=O)=O)cc2)cc1 | < | 10

* * *

- Test system: HT29
- protocol_summary: NCI antitumor screen (SRB)
- Format: cell-based
- test_settings: Homo sapiens, HT-29, one dose 10 µM, read-out: Growth inhibition percentage (GI%)
parameter_measured: inhibition at 10 µM (%)

substance_smiles | parameter_measured | observed_result
COc1cc(/C=N/NC(=O)c2ccc(S(C)(=O)=O)cc2)ccc1O | inhibition at 10 µM | 17.5
CS(=O)(=O)c1ccc(C(=O)NN=Cc2ccccc2F)cc1 | inhibition at 10 µM | 18.6
CCN(CC)c1ccc(/C=N/NC(=O)c2ccc(S(C)(=O)=O)cc2)c(O)c1 | inhibition at 10 µM | 78.2
CS(=O)(=O)c1ccc(C(=O)NN=Cc2ccc3c(c2)OCO3)cc1 | inhibition at 10 µM | 11
CS(=O)(=O)c1ccc(C(=O)NN=Cc2cccc3ccccc23)cc1 | inhibition at 10 µM | 50.5

* * *

- Tested on: RXF 393
- protocol_summary: NCI antitumor screen (SRB)
- Type: cell-based
- test_settings: Homo sapiens, one dose 10 µM, read-out: Growth inhibition percentage (GI%)
Listing of entries alongside the reported inhibition at 10 µM.

compound | display_unit | result_qualifier | inhibition at 10 µM
CCN(CC)c1ccc(/C=N/NC(=O)c2ccc(S(C)(=O)=O)cc2)c(O)c1 | % | = | 71.5
O=c1[nH]cc(F)c(=O)[nH]1 [Compound 5-Fu, 5-fluorouracil, reference compound] | % | = | 65.7
CS(=O)(=O)c1ccc(C(=O)NN=Cc2cccc3ccccc23)cc1 | % | < | 10
CS(=O)(=O)c1ccc(C(=O)N/N=C/c2ccccc2O)cc1 | % | = | 47
Cc1ccc(NC(=O)c2ccc(CN3CCN(C)CC3)cc2)cc1Nc1nccc(-c2cccnc2)n1 [Imatinib, imatinib, reference compound] | % | < | 10
Cc1ccc(C=NNC(=O)c2ccc(S(C)(=O)=O)cc2)cc1 | % | < | 10

* * *

- Tested on: SR
- protocol_summary: NCI antitumor screen (SRB)
- Assay type: cell-based
- test_settings: Homo sapiens, one dose 10 µM, read-out: Growth inhibition percentage (GI%)
parameter_measured: inhibition at 10 µM

molecule | test_system | observed_result
CS(=O)(=O)c1ccc(C(=O)NN=Cc2ccc(Cl)c(Cl)c2)cc1 [Compound 18] | SR | 24.5%
Cc1ccc(C=NNC(=O)c2ccc(S(C)(=O)=O)cc2)cc1 [Compound 9] | SR | 43.8%
COc1cc(/C=N/NC(=O)c2ccc(S(C)(=O)=O)cc2)ccc1O [Compound 19] | SR | 18.5%
CS(=O)(=O)c1ccc(C(=O)NN=Cc2cccc3ccccc23)cc1 [Compound 6] | SR | 67.5%
CS(=O)(=O)c1ccc(C(=O)N/N=C/c2ccccc2O)cc1 [Compound 16] | SR | 79.6%
